System Tested: CTLA4 (human)
Sequence (chain, as listed by the source): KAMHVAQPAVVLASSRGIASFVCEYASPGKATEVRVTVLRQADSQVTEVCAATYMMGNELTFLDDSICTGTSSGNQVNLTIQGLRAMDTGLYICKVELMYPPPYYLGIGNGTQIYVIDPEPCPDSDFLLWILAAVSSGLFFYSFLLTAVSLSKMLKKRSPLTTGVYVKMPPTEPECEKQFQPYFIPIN
Assay Name: flow cytometry, CHO cells stably expressing CTLA4
Lab note - cut at 10000 MFI for MFI at 33.3 nM: 1 if strictly below, -1 if not.

Example results:
Binder: CD80 variant H18Y/V20A/Q33L/E35D/M47V/Y53F IgV-Fc (Fc fusion) VIHVTKEVKEVATLSCGYNASVEELAQTRIYWLKDKKMVLTMMSGDVNIWPEFKNRTIFDITNNLSIVILALRPSDEGTYECVVLKYEKDAFKREHLAEVT
Assigned Class: 1

Binder: CD80 variant E35D/M47I/E77A/L85Q/R94W IgV-Fc (Fc fusion) VIHVTKEVKEVATLSCGHNVSVEELAQTRIYWQKDKKMVLTMMSGDINIWPEYKNRTIFDITNNLSIVILALRPSDAGTYECVVQKYEKDAFKWEHLAEVT
Assigned Class: -1

Binder: CD80 variant H18Y/Y31H/E35D/M47V/A71G/L85Q IgV-Fc (Fc fusion) VIHVTKEVKEVATLSCGYNVSVEELAQTRIHWQKDKKMVLTMMSGDVNIWPEYKNRTIFDITNNLSIVILGLRPSDEGTYECVVQKYEKDAFKREHLAEVT
Assigned Class: 1

Binder: CD80 variant Q33L/E35D/M47V/L85Q IgV-Fc (Fc fusion) VIHVTKEVKEVATLSCGHNVSVEELAQTRIYWLKDKKMVLTMMSGDVNIWPEYKNRTIFDITNNLSIVILALRPSDEGTYECVVQKYEKDAFKREHLAEVT
Assigned Class: -1

Binder: CD80 variant Q33L/E35D/M43V/M47I/A71G IgV-Fc (Fc fusion) VIHVTKEVKEVATLSCGHNVSVEELAQTRIYWLKDKKMVLTMVSGDINIWPEYKNRTIFDITNNLSIVILGLRPSDEGTYECVVLKYEKDAFKREHLAEVT
Assigned Class: -1

We now examine a further binder.
Determine whether this binder shows MFI at 33.3 nM lower than 10000 MFI (ties excluded): CD80 variant Q27H/Q33L/E35D/M47V/N55D/L85Q/K89N IgV-Fc (Fc fusion) VIHVTKEVKEVATLSCGHNVSVEELAHTRIYWLKDKKMVLTMMSGDVNIWPEYKDRTIFDITNNLSIVILALRPSDEGTYECVVQKYENDAFKREHLAEVT
-1

Origin of measurements: patent US20250163127A1
